- Target of assay: CCK receptor (pancreas) (Rattus norvegicus, UniProt P30551)
- Construct: The whole pancreas was dissected free of fat tissue and was homogenized
- Sequence (P30551 whole entry): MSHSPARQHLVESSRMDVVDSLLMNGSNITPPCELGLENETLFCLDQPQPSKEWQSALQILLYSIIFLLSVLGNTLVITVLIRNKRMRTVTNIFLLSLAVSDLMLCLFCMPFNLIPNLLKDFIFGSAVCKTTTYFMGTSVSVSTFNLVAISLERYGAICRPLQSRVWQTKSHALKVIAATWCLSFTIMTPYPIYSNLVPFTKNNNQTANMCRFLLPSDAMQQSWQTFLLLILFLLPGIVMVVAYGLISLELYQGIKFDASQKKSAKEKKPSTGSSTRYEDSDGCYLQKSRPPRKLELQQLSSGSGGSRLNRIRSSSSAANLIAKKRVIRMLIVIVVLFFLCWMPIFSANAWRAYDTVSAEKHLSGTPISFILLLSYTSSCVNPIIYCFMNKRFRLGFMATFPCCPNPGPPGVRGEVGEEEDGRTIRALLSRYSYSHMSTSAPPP
- Measurement description: biochemical
- Condition context: rat pancreas membranes, 50 pM 125I-CCK-8, 25°C 2 hours
Threshold check on IC50: strictly below 200 nM is class 1; on or above 200 nM is class 0.

Problem: Does this compound meet the criterion IC50 < 200 nM? CC(=O)NS(=O)(=O)c1cccc(NC(=O)NC2N=C(C3CCCCC3)c3ccccc3N(C)C2=O)c1 (racemic)
Solution: class 1

Problem: Let us now turn to CCN1C(=O)C(NC(=O)Nc2cccc(S(=O)(=O)NC(C)=O)c2)N=C(C2CCCC2)c2ccccc21 (racemic)
Solution: class 0

Problem: Let us now turn to CCN1C(=O)C(NC(=O)Nc2cccc(C(=O)NS(=O)(=O)C(C)C)c2)N=C(C2CCCC2)c2ccccc21 (racemic)
Solution: class 1

Problem: Let us now turn to CN1C(=O)C(NC(=O)Nc2cccc(-c3nn[nH]n3)c2)N=C(C2CCCCC2)c2ccccc21 (racemic)
Solution: class 1

Problem: Let us now turn to CN1C(=O)C(NC(=O)Nc2cccc(-c3cc(=O)c(O)co3)c2)N=C(C2CCCCC2)c2ccccc21 (racemic)
Solution: class 1

Problem: Let us now turn to Cc1ccc(NC(=O)N[C@@H]2N=C(C3CCCCC3)c3ccccc3N(C)C2=O)cc1C(=O)NS(C)(=O)=O
Solution: class 0

Problem: Let us now turn to CCCN1C(=O)C(NC(=O)Nc2cccc(C(=O)NS(C)(=O)=O)c2)N=C(C2CCCCC2)c2ccccc21 (racemic)
Solution: class 0

Problem: Let us now turn to CCCN1C(=O)C(NC(=O)Nc2cccc(C(=O)NS(=O)(=O)C(C)C)c2)N=C(C2CCCC2)c2ccccc21 (racemic)
Solution: class 0

Problem: Let us now turn to CCCN1C(=O)C(NC(=O)Nc2cccc(C(=O)NS(=O)(=O)C(C)(C)C)c2)N=C(C2CCCC2)c2ccccc21 (racemic)
Solution: class 0
